This listing pairs compounds with measured MIC.
# System: Pasteurella multocida 60A
# run_description: MIC, broth-dilution microtiter test (Table X)
# Format: cell-based
# condition_summary: Avian isolate, read-out: MIC
# Source text: The MIC's in Table X were obtained using conventional broth-dilution microtiter tests.
Reply numerically in µg/mL, unit not repeated.

| compound | target_entity | readout_units | MIC |
| --- | --- | --- | --- |
| CCC1OC(=O)CC(O)C(C)C(OC2OC(C)C(O)C(N(C)C)C2O)C(CCN2CCCCCCCCCCCC2)CC(C)C(=O)C=CC(C)=CC1COC1OC(C)C(O)C(OC)C1OC (stereo not drawn) [Compound D10] | Pasteurella multocida 60A | µg/mL | 3.12 |

Data request: Requested read-out MIC, target or system Pasteurella multocida 60A, entry CCC1OC(=O)CC(O)C(C)C(OC2OC(C)C(O)C(N(C)C)C2O)C(CCN2CC=CCC2)CC(C)C(=O)C=CC(C)=CC1COC1OC(C)C(O)C(OC)C1OC (stereo not drawn) [Compound D22]
Data returned: 12.5

Data request: Requested read-out MIC, target or system Pasteurella multocida 60A, entry CCC1OC(=O)CC(O)C(C)C(OC2OC(C)C(O)C(N(C)C)C2O)C(CCN2CC=C(c3ccccc3)CC2)CC(C)C(=O)C=CC(C)=CC1COC1OC(C)C(O)C(OC)C1OC (stereo not drawn) [Compound D26]
Data returned: 12.5

Data request: Requested read-out MIC, target or system Pasteurella multocida 60A, entry CCC1OC(=O)CC(O)C(C)C(OC2OC(C)C(O)C(N(C)C)C2O)C(CCN2CCCCC2)CC(C)C(=O)C=CC(C)=CC1COC1OC(C)C(O)C(OC)C1OC (stereo not drawn) [Compound D2, 20-DH-DO-20-(piperidin-1-yl)desmycosin]
Data returned: 6.25

Data request: Requested read-out MIC, target or system Pasteurella multocida 60A, entry CCC1OC(=O)CC(O)C(C)C(OC2OC(C)C(O)C(N(C)C)C2O)C(CCN2CC3CCC(CC3)C2)CC(C)C(=O)C=CC(C)=CC1COC1OC(C)C(O)C(OC)C1OC (stereo not drawn) [Compound D14]
Data returned: 3.12

Data request: Requested read-out MIC, target or system Pasteurella multocida 60A, entry CCC1OC(=O)CC(O)C(C)C(OC2OC(C)C(O)C(N(C)C)C2O)C(CCN2CCCCCCC2)CC(C)C(=O)C=CC(C)=CC1COC1OC(C)C(O)C(O)C1OC (stereo not drawn) [Compound L5]
Data returned: 12.5

Data request: Requested read-out MIC, target or system Pasteurella multocida 60A, entry CCC1OC(=O)CC(O)C(C)C(OC2OC(C)C(O)C(N(C)C)C2O)C(CCN2CCC3(CCCCC3)CC2)CC(C)C(=O)C=CC(C)=CC1COC1OC(C)C(O)C(OC)C1OC (stereo not drawn) [Compound D43]
Data returned: 6.25

Data request: Requested read-out MIC, target or system Pasteurella multocida 60A, entry CCC1OC(=O)CC(O)C(C)C(OC2OC(C)C(O)C(N(C)C)C2O)C(CCN2CCCCCC2)CC(C)C(=O)C=CC(C)=CC1COC1OC(C)C(O)C(OC)C1OC (stereo not drawn) [Compound D5]
Data returned: 3.12

Data request: Requested read-out MIC, target or system Pasteurella multocida 60A, entry CCC1OC(=O)CC(O)C(C)C(OC2OC(C)C(O)C(N(C)C)C2O)C(CCN2CCC(N3CCCCC3)CC2)CC(C)C(=O)C=CC(C)=CC1COC1OC(C)C(O)C(OC)C1OC (stereo not drawn) [Compound D13]
Data returned: 12.5

Data request: Requested read-out MIC, target or system Pasteurella multocida 60A, entry CCC1OC(=O)CC(O)C(C)C(OC2OC(C)C(O)C(N(C)C)C2O)C(CCN2CCC3(CC2)OCCO3)CC(C)C(=O)C=CC(C)=CC1COC1OC(C)C(O)C(OC)C1OC (stereo not drawn) [Compound D28]
Data returned: 25

Data request: Requested read-out MIC, target or system Pasteurella multocida 60A, entry CCC1OC(=O)CC(O)C(C)C(OC2OC(C)C(O)C(N(C)C)C2O)C(CCN2CCCC23CCCCC3)CC(C)C(=O)C=CC(C)=CC1COC1OC(C)C(O)C(OC)C1OC (stereo not drawn) [Compound D19]
Data returned: 3.12
